Values were extracted from ChEMBL document CHEMBL1961873.

Can you tell me inhibition for the items I'm about to list?
System: Mast/stem cell growth factor receptor Kit (Homo sapiens), P10721 [T670I]
Sequence (P10721 whole entry T670I): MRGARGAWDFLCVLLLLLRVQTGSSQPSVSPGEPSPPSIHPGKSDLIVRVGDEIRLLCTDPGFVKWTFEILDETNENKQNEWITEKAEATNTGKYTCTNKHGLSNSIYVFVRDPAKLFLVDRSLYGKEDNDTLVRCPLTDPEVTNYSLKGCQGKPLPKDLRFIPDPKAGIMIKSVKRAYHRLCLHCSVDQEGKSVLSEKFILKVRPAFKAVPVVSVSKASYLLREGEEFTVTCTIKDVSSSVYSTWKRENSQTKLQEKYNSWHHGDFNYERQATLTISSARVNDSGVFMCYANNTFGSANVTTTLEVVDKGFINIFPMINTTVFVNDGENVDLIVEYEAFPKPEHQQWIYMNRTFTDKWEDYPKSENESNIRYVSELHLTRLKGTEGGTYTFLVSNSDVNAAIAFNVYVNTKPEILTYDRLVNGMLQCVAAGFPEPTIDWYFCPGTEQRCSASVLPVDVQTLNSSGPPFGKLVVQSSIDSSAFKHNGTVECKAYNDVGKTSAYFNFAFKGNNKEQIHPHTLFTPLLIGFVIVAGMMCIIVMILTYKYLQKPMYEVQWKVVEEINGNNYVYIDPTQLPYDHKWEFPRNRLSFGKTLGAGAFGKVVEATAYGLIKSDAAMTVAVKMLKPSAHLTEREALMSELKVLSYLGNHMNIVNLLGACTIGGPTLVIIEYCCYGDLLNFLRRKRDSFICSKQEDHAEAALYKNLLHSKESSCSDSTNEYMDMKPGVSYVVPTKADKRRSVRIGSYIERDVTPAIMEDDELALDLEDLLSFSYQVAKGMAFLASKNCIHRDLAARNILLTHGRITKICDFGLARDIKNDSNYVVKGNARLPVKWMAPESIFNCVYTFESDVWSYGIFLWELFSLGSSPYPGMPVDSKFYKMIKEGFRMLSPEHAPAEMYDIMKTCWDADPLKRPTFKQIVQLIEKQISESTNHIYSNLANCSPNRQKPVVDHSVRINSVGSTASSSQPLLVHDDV
Settings: at 0.1 µM
Expressed in %, but write only the number.

Test item Cn1cc(C=C2C(=O)Nc3cccnc32)c2ccccc21 ; Mast/stem cell growth factor receptor Kit (Homo sapiens), P10721 [T670I]; reported inhibition was 2.37

Test item CCn1c(-c2nonc2N)nc2c(C#CC(C)(C)O)nc(OC[C@@H](N)c3ccccc3)cc21 ; Mast/stem cell growth factor receptor Kit (Homo sapiens), P10721 [T670I]; reported inhibition was -1.49

Test item CC1=C(C(=O)Nc2ccc3[nH]ncc3c2)C(c2ccc3ccccc3c2)CC(=O)N1 (configuration not stated) ; Mast/stem cell growth factor receptor Kit (Homo sapiens), P10721 [T670I]; reported inhibition was 1.53

Test item CN1CCC(C(=O)Nc2n[nH]c3nnc(-c4ccccc4)cc23)CC1 ; Mast/stem cell growth factor receptor Kit (Homo sapiens), P10721 [T670I]; reported inhibition was 4.77

Test item COc1ccc(-c2nn3ncccc3c2-c2ccnc(Nc3ccc(Cl)c(C(F)(F)F)c3)n2)cc1 ; Mast/stem cell growth factor receptor Kit (Homo sapiens), P10721 [T670I]; reported inhibition was -0.64

Test item O=C1NC(=O)C(c2ccc(Cl)cc2)=C1Nc1ccc(Cl)c(C(=O)O)c1 ; Mast/stem cell growth factor receptor Kit (Homo sapiens), P10721 [T670I]; reported inhibition was -0.88

Test item Cc1ccc(NC(=O)c2ccnc(N3CCCC3)c2)cc1-c1ccc(C(=O)NCC2CC2)cc1 ; Mast/stem cell growth factor receptor Kit (Homo sapiens), P10721 [T670I]; reported inhibition was 2.54

Test item COc1cc2ncn(-c3cc(OCc4ccccc4C(F)(F)F)c(C(N)=O)s3)c2cc1OC ; Mast/stem cell growth factor receptor Kit (Homo sapiens), P10721 [T670I]; reported inhibition was 3.55

Test item O=C(Nc1n[nH]c2nc(-c3ccco3)c(Br)cc12)C1CC1 ; Mast/stem cell growth factor receptor Kit (Homo sapiens), P10721 [T670I]; reported inhibition was 2.25

Test item CS(=O)(=O)Nc1ccc(N/C=C2\C(=O)Nc3ccccc32)cc1 ; Mast/stem cell growth factor receptor Kit (Homo sapiens), P10721 [T670I]; reported inhibition was 7.79

Test item CNC(=O)c1cncc(/C=C/c2c(Cl)cccc2Cl)c1 ; Mast/stem cell growth factor receptor Kit (Homo sapiens), P10721 [T670I]; reported inhibition was 0.36

Test item N#Cc1c(NC(=O)c2cccc3ccccc23)sc2c1CCCC2 ; Mast/stem cell growth factor receptor Kit (Homo sapiens), P10721 [T670I]; reported inhibition was 2.84

Test item COc1cc2ncn(-c3cc(O[C@H](C)c4ccccc4Cl)c(C(N)=O)s3)c2cc1OC ; Mast/stem cell growth factor receptor Kit (Homo sapiens), P10721 [T670I]; reported inhibition was 5.66

Test item Cc1nn(C)c2cc(N(C)c3ccnc(Nc4cccc(S(N)(=O)=O)c4)n3)ccc12 ; Mast/stem cell growth factor receptor Kit (Homo sapiens), P10721 [T670I]; reported inhibition was 5.8

Test item COc1ccc(-c2coc3ncnc(N)c23)cc1 ; Mast/stem cell growth factor receptor Kit (Homo sapiens), P10721 [T670I]; reported inhibition was 3.49

Test item Cc1nnc(-c2ccc(C)c(-c3ccc(C(=O)Nc4cccc(C#N)c4)cc3)c2)o1 ; Mast/stem cell growth factor receptor Kit (Homo sapiens), P10721 [T670I]; reported inhibition was 0.85

Test item Nc1nc(-c2ccccn2)c(-c2ccc3ncccc3n2)s1 ; Mast/stem cell growth factor receptor Kit (Homo sapiens), P10721 [T670I]; reported inhibition was 4.81

---

Target: BDNF/NT-3 growth factors receptor (Homo sapiens) (UniProt Q16620);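 also: values are the mean percent inhibition of TRKB kinase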
Sequence (Q16620 32-822 limits assumed): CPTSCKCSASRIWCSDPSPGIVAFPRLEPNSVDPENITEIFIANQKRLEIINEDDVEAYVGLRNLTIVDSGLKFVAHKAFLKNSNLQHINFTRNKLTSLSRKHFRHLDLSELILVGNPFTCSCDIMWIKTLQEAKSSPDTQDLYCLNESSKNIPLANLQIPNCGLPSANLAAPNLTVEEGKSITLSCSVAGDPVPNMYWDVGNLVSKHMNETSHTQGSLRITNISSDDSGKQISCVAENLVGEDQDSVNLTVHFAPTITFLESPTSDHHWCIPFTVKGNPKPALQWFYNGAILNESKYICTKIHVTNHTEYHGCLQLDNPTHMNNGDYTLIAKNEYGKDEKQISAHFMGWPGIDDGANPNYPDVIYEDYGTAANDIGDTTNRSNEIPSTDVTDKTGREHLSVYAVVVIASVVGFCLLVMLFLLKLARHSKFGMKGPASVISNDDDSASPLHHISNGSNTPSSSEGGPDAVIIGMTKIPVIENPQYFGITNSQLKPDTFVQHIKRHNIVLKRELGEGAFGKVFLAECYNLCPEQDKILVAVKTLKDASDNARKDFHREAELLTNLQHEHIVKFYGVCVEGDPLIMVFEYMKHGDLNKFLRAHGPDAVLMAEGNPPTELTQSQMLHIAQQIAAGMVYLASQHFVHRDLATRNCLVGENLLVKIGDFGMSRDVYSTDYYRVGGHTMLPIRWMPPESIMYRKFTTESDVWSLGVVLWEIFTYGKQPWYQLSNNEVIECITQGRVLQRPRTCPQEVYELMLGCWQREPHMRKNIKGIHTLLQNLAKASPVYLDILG
Conditions: at 1 µM
EXPERIMENTAL ENDPOINT: inhibition (%)
Expressed in %, but write only the number.

The compound listed as CS(=O)(=O)CCNCc1nc(-c2ccc3ncnc(Nc4ccc(F)c(Cl)c4)c3c2)cs1 shows inhibition equal to 4.21

The compound listed as N#Cc1c(NC(=O)c2cccc3ccccc23)sc2c1CCCC2 shows inhibition equal to 2.36

The compound listed as CCn1c(-c2nonc2N)nc2cncc(C(=O)N3CCNCC3)c21 shows inhibition equal to 4.35

The compound listed as CC1=C(C(=O)Nc2ccc3[nH]ncc3c2)C(c2ccc(F)cc2)NC(=O)N1 (stereo not given) shows inhibition equal to 4.06

The compound listed as Nc1ncnc2occ(-c3ccc(NC(=O)Nc4cccc(C(F)(F)F)c4)cc3)c12 shows inhibition equal to 91.1

The compound listed as CCCN1CCC(Oc2cc(Nc3nc(Nc4cccc(F)c4C(N)=O)c4cc[nH]c4n3)c(OC)cc2Cl)CC1 shows inhibition equal to 3.41

The compound listed as Fc1cccc(COc2ccc(Nc3ncnc4cc(-c5ccc[nH]5)sc34)cc2Cl)c1 shows inhibition equal to 0.88

The compound listed as Nc1nc(-c2ccc3c(c2)C(=Cc2cc(Br)c(O)c(Br)c2)C(=O)N3)cs1 shows inhibition equal to 9.18

The compound listed as CC1=C(C(=O)Nc2ccc3[nH]ncc3c2)C(c2ccc(Cl)c(Cl)c2)CC(=O)N1 (stereo not given) shows inhibition equal to -0.28

The compound listed as Cc1nn(C)c2cc(N(C)c3ccnc(Nc4cccc(S(N)(=O)=O)c4)n3)ccc12 shows inhibition equal to 11.7

The compound listed as COc1cc2c(cc1Nc1nc(N3CCc4ccccc43)c3cc[nH]c3n1)N(C(=O)CN(C)C)CC2 shows inhibition equal to 2.75

The compound listed as CCN1CCC(CC(=O)Nc2n[nH]c3nc(-c4cccs4)c(Br)cc23)CC1 shows inhibition equal to -1.99

The compound listed as O=C1NC(=O)C(c2ccc(Cl)cc2)=C1Nc1ccc(Cl)c(C(=O)O)c1 shows inhibition equal to 0.65

The compound listed as CN(C)c1cc2c(Nc3ccc4nc(Cc5ccccc5)[nH]c4c3)ncnc2cn1 shows inhibition equal to 2.87

The compound listed as COc1cc2ncn(-c3cc(O[C@H](C)c4ccccc4Cl)c(C(N)=O)s3)c2cc1OC shows inhibition equal to 43.3

The compound listed as COc1cccc(-n2ncc3c(N/N=C/c4cccc(F)c4)ncnc32)c1 shows inhibition equal to 6.27

The compound listed as COC(=O)Nc1nc2cc(Oc3cccc(NC(=O)Nc4cc(C(F)(F)F)ccc4F)c3)ccc2[nH]1 shows inhibition equal to 2.43

The compound listed as COc1ccc(COc2ccc(Cc3cnc(N)nc3N)cc2OC)cc1 shows inhibition equal to 75.4

The compound listed as COc1cc2ncn(-c3cc(OCc4ccccc4C(F)(F)F)c(C(N)=O)s3)c2cc1OC shows inhibition equal to 10.2

The compound listed as NCc1ccc(-c2nc(-c3ccc(Cl)c(O)c3)c(-c3ccncc3)[nH]2)cc1 shows inhibition equal to 0.73

---

Can you tell me inhibition for the items I'm about to list?
Target: Tyrosine-protein kinase Tec (Homo sapiens) (UniProt P42680)
Sequence (whole entry): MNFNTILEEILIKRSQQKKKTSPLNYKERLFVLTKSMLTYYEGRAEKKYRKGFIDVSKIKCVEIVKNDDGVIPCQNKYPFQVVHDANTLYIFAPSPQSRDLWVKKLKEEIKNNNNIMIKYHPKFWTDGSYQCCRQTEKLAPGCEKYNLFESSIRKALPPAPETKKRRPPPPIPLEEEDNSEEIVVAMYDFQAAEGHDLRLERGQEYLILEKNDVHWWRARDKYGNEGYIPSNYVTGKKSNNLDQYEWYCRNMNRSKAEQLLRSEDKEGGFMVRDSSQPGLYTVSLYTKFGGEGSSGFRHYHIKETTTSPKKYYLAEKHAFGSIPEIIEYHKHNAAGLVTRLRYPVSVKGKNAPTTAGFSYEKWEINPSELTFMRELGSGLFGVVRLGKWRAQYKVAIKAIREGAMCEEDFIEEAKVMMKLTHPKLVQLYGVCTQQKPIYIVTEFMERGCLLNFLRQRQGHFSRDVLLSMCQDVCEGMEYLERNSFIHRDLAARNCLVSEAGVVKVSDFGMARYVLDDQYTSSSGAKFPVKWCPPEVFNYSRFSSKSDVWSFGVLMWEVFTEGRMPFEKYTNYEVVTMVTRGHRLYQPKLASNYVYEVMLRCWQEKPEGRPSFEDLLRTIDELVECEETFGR
Settings: at 0.1 µM
Description: GSK_PKIS: TEC mean inhibition at 0.1 uM [Nanosyn]
Expressed in %, but write only the number.

The molecule listed as COc1cc2ncn(-c3cc(O[C@H](C)c4ccccc4Cl)c(C(N)=O)s3)c2cc1OC shows inhibition equal to 5.59

The molecule listed as COc1cccc(-n2ncc3c(N/N=C/c4cccc(F)c4)ncnc32)c1 shows inhibition equal to -1.33

The molecule listed as CC1=C(C(=O)Nc2ccc3[nH]ncc3c2)C(c2ccc3ccccc3c2)CC(=O)N1 (stereo unspecified) shows inhibition equal to 2.81

The molecule listed as CCn1c(-c2nonc2N)nc2c(N3CCCC3)nccc21 shows inhibition equal to -1.85

The molecule listed as c1cnn2ncc(-c3ccnc(Nc4ccc5c(c4)OCCO5)n3)c2c1 shows inhibition equal to 6.85

The molecule listed as COc1ccc(-c2nn3ncccc3c2-c2ccnc(Nc3ccc(Cl)c(C(F)(F)F)c3)n2)cc1 shows inhibition equal to 1.4

The molecule listed as NS(=O)(=O)c1cccc(-c2ccc3c(NC(=O)C4CC4)n[nH]c3c2)c1 shows inhibition equal to -1.67

The molecule listed as Cc1ccc(NC(=O)c2ccnc(N3CCCC3)c2)cc1-c1ccc(C(=O)NCC2CC2)cc1 shows inhibition equal to 0.49

The molecule listed as Cc1cc(O)cc(C)c1/C=C/c1cncc(-c2nn[nH]n2)c1 shows inhibition equal to 15.1

The molecule listed as NC(=O)c1cccc(Nc2nccc(Nc3cccc4[nH]ncc34)n2)c1 shows inhibition equal to 17.4

The molecule listed as CCn1c(-c2nonc2N)nc2ccncc21 shows inhibition equal to 2.56

The molecule listed as Cn1cc(C=C2C(=O)Nc3cccnc32)c2ccccc21 shows inhibition equal to 2.46

The molecule listed as COC(=O)Nc1nc2cc(Oc3ccc(NC(=O)Nc4cccc(C(=O)O)c4)cc3)ccc2[nH]1 shows inhibition equal to -2.22

The molecule listed as Cc1nnc(-c2ccc(C)c(-c3ccc(C(=O)Nc4cccc(C#N)c4)cc3)c2)o1 shows inhibition equal to 4.05

The molecule listed as Fc1cccc(COc2ccc(Nc3ncnc4cc(-c5ccc[nH]5)sc34)cc2Cl)c1 shows inhibition equal to -0.22

The molecule listed as O=C1NC(=O)C(c2ccc(Cl)cc2)=C1Nc1ccc(Cl)c(C(=O)O)c1 shows inhibition equal to -1.66
